stated-conditions: 303.15 K; 101.33 kPa; Liquid; Vibrating tube method
// mass density lookup, one value per entry
The response must be a number in kg/m3 with no trailing unit.

Example cases with answers are listed next.
CCCCCCn1cc[n+](C)c1.F[B-](F)(F)F [1-hexyl-3-methylimidazolium tetrafluoroborate]
1144.74
CCCCCCn1cc[n+](C)c1.F[P-](F)(F)(F)(F)F [1-hexyl-3-methylimidazolium hexafluorophosphate]
1290.66
CCCCCCn1cc[n+](C)c1.[Br-] [3-hexyl-1-methyl-1H-imidazolium bromide]
1220.47

Okay, now this compound:
Enquiry: Name the recorded mass density for COCCO .
Return: 955.615
